tested.on: RAF proto-oncogene serine/threonine-protein kinase (Homo sapiens)
Sequence (P04049 whole entry): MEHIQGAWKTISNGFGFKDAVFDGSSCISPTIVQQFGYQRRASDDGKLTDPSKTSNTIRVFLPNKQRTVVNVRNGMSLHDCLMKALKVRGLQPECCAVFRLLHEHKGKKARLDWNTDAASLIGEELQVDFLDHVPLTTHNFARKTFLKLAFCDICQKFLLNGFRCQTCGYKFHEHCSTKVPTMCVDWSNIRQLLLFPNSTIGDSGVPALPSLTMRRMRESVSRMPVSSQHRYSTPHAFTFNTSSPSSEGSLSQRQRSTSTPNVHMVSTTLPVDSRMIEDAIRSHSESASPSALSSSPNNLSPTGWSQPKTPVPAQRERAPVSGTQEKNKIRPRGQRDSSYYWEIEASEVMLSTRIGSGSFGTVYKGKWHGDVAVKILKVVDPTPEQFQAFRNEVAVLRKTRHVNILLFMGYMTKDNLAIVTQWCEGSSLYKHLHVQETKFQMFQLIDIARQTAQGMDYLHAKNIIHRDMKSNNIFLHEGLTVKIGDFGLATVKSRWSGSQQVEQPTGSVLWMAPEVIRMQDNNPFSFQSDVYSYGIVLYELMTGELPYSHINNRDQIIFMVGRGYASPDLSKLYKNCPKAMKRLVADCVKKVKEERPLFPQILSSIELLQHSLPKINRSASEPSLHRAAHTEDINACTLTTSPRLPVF
pIC50: −log10 of the molar value.
// values below are reported pIC50

Record excerpt, results attached:
smiles.repr: O=C(c1c(F)ccc(NS(=O)(=O)c2ccc(C(F)(F)F)cc2)c1F)c1c[nH]c2nccnc12
pIC50: ≥ 5.00
//
smiles.repr: CCCS(=O)(=O)Nc1ccc(F)c(C(=O)c2c[nH]c3nccnc23)c1F
pIC50: ≥ 5.00

Now consider the entry below.
Q: Please list pIC50 recorded for the molecule CCCS(=O)(=O)Nc1ccc(F)c(C(=O)c2c[nH]c3ncc(Br)nc23)c1F
A: ≥ 5.00

---

tested.on: Proto-oncogene tyrosine-protein kinase Src (Homo sapiens, UniProt P12931)
Sequence (P12931 2-536 limits assumed): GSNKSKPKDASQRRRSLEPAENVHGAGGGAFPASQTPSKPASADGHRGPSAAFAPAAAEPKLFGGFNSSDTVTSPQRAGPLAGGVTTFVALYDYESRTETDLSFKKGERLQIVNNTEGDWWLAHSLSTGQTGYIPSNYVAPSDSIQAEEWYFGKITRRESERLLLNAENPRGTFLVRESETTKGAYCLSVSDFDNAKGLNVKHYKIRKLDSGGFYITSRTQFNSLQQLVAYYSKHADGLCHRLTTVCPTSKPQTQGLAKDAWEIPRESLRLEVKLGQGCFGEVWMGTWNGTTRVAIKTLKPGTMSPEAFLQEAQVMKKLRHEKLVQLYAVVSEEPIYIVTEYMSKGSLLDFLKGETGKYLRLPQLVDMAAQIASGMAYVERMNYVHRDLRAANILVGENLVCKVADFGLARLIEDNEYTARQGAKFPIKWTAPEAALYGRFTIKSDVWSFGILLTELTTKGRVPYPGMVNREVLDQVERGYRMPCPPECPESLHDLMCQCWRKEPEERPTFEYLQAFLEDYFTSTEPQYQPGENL
pIC50: −log10 of the molar value.
endpoint: pIC50

Q: Provide the reported pIC50 (system: Proto-oncogene tyrosine-protein kinase Src (Homo sapiens, UniProt P12931)) for CCCS(=O)(=O)Nc1ccc(F)c(C(=O)c2c[nH]c3ncc(-c4cnn(C)c4)nc23)c1F
A: ≥ 5.00

# credit: ChEMBL document CHEMBL3714760
